targetOrTestSystem: GST-RIPK2 fusion protein (human RIPK2, amino acids 1-310) (Homo sapiens, UniProt O43353)
Construct: made in house; host or cells: baculovirus infected Sf9 cells
Sequence (O43353 1-310): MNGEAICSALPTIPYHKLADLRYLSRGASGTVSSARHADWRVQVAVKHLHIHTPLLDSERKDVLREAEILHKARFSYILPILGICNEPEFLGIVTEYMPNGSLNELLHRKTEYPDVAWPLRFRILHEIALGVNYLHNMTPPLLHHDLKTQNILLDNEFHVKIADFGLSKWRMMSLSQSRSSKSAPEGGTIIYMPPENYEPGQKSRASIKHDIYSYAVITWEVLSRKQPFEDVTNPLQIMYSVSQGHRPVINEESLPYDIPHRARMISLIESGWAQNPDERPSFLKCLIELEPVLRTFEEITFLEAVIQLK
experimentalProtocol: RIPK2 binding competition assay (TR-FRET, Tracer 199 displacement)
conditionLabel: 10 nM Tracer 199, 1 nM GST-RIPK2, read-out: RIPK2 IC50
observedProperty: IC50

Answered examples (4):
entrySmiles: CC(C)(C)S(=O)(=O)c1cn2c(-c3cc(Cl)c(N)nc3F)cnc2cc1CCCO
targetOrTestSystem: GST-RIPK2 fusion protein (human RIPK2, amino acids 1-310) (Homo sapiens, UniProt O43353)
endpointValue: 2.5 to 20 nM

entrySmiles: CCS(=O)(=O)c1cn2c(-c3cc(F)c(OC)c(NS(=O)(=O)c4cnn(C)c4)c3)cnc2cc1OC
targetOrTestSystem: GST-RIPK2 fusion protein (human RIPK2, amino acids 1-310) (Homo sapiens, UniProt O43353)
endpointValue: < 1 nM

entrySmiles: C[C@@H](O)COc1cn2ncc(-c3cc(Cl)c(N)nc3F)c2cc1S(=O)(=O)C(C)(C)C
targetOrTestSystem: GST-RIPK2 fusion protein (human RIPK2, amino acids 1-310) (Homo sapiens, UniProt O43353)
endpointValue: 1 to 2.5 nM

entrySmiles: COc1cn2ncc(-c3cc(F)c(N)nc3F)c2cc1C1(O)CCN(C)CC1
targetOrTestSystem: GST-RIPK2 fusion protein (human RIPK2, amino acids 1-310) (Homo sapiens, UniProt O43353)
endpointValue: 2.5 to 20 nM

Lookup: Using known records, supply IC50 for COc1cc2ncc(-c3ccc4sc(N)nc4c3)n2cc1S(=O)(=O)C(C)(C)C
Found: > 20 nM

Lookup: Using known records, supply IC50 for COc1cc2ncc(-c3cc(F)c(N)nc3F)n2cc1S(=O)(=O)N(C)C
Found: > 20 nM

Lookup: Using known records, supply IC50 for COCCOc1cc2ncc(-c3cc(F)c(N)nc3F)n2cc1S(=O)(=O)C(C)(C)C
Found: 2.5 to 20 nM

Lookup: Using known records, supply IC50 for COc1cc2ncc(-c3cnc4cc(N)ccc4c3)n2cc1S(=O)(=O)C(C)(C)C
Found: > 20 nM

Lookup: Using known records, supply IC50 for COc1cc2ncc(-c3cc(F)c(N)nc3F)n2cc1C1(O)CCN(C)CC1
Found: > 20 nM

Lookup: Using known records, supply IC50 for CC(C)(C)S(=O)(=O)c1cn2c(-c3cnc4nccn4c3)cnc2cc1OCCO
Found: > 20 nM

Lookup: Using known records, supply IC50 for C[C@@H](O)COc1cc2ncc(-c3ccc(N)nc3F)n2cc1S(=O)(=O)C(C)(C)C
Found: 2.5 to 20 nM
